molecular target: Clonorchis sinensis omega-class glutathione transferase 1 (CsGSTo1) (Clonorchis sinensis, UniProt A0A192IBN1); construct: full-length recombinant (246 amino acids), His-tag removed; GenBank KX163088; assay: biochemical; set-up: DHAR activity inhibition of recombinant CsGSTo, absorbance at 265 nm; Ki from Lineweaver-Burk plots
Sequence (A0A192IBN1 1-246): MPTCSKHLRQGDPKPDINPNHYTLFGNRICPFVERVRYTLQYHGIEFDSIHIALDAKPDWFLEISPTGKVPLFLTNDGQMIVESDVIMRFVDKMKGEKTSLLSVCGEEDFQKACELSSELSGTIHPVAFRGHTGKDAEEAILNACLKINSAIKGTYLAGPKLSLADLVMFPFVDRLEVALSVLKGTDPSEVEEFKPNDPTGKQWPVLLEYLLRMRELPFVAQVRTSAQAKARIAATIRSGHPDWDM
Property: pKi
Answers are plain numbers, as −log10 of the molar value.

-- ask If you can, please state the reported pKi value of CCCCCCSC[C@H](NC(=O)CC[C@H](N)C(=O)O)C(=O)NCC(=O)O .
-- reply 9.20

---

Target: Clonorchis sinensis omega-class glutathione transferase 2 (CsGSTo2) (Clonorchis sinensis, UniProt G7YE46)
Construct: gene CLF_105746; full-length recombinant (223 amino acids), His-tag removed; GenBank KX163089
Sequence (G7YE46 1-223): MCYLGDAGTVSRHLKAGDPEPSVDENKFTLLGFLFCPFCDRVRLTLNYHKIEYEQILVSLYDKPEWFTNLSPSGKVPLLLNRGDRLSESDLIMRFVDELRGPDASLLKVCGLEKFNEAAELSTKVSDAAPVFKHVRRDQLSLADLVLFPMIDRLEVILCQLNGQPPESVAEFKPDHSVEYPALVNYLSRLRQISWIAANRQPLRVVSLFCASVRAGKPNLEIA
Assay: biochemical
Parameters: DHAR activity inhibition of recombinant CsGSTo, absorbance at 265 nm; Ki from Lineweaver-Burk plots
Settings: ligand binding site (varied GSH), non-competitive
Property: Ki (µM)
Numbers only, in µM.

-- ask Suppose we examine the compound O=C(C1CCCCC1)N1CC(=O)N2CCc3ccccc3C2C1 (stereo not shown) ; what Ki value has been reported?
-- reply 42.8
